Test system: OVCAR-4
TEST: NCI tumour cell line growth inhibition, 48 h
Calls of active or inactive are those of the source. Rule as the data show it: active = GI50 up to about 1.1 µM and inactive = higher.
Outcome codes: True (active), False (inactive)

MOLECULE: N=C(N)N/N=C/c1c(-c2ccc([N+](=O)[O-])cc2)nc2sc(Cl)cn12
ASSIGNED_CATEGORY: True

MOLECULE: c1ccc2c(c1)c1ccccc1c1n[se]nc21
ASSIGNED_CATEGORY: False

MOLECULE: Cc1c(C)c(S(=O)(=O)N(CCCCCCN)OCCCN)c(C)c2c1OC(C)(C)CC2
ASSIGNED_CATEGORY: False

MOLECULE: COC(=O)C1CCC(=O)N1/C(C)=N/NC(=O)Nc1ccc(Cl)c(Cl)c1 (stereo not given)
ASSIGNED_CATEGORY: False

MOLECULE: CC1(C)Cc2c(sc3[nH]c(=S)[nH]c(=S)c23)CS1
ASSIGNED_CATEGORY: False

MOLECULE: CC(C)(C)c1cc(C2COC(c3cc(C(C)(C)C)c(O)c(C(C)(C)C)c3)CO2)cc(C(C)(C)C)c1O (stereo not given)
ASSIGNED_CATEGORY: False

MOLECULE: CCN(CC)CCC(=O)c1ccc(Sc2ccc(F)cc2)cc1
ASSIGNED_CATEGORY: False

MOLECULE: CC(NC(=O)c1ccc(Cl)c(Cl)c1)c1ccc(-c2ccccc2)cc1 (stereo not given)
ASSIGNED_CATEGORY: False

MOLECULE: Cn1nc2n(c1=O)CCCN2
ASSIGNED_CATEGORY: False

MOLECULE: N#Cc1c(N2CCN(c3ccc([N+](=O)[O-])cc3)CC2)[n+]([O-])c2ccc(Cl)cc2[n+]1[O-]
ASSIGNED_CATEGORY: False

MOLECULE: Cc1cc(=O)c2c(O)cc3c(c2o1)CC=C(COC1OC(COC2OC(CO)C(O)C(O)C2O)C(O)C(O)C1O)CO3 (stereo not given)
ASSIGNED_CATEGORY: False

MOLECULE: CC1OC(n2cc(Cl)c(=O)[nH]c2=O)C=C(OC(=O)c2ccccc2)C1=O (stereo not given)
ASSIGNED_CATEGORY: False

MOLECULE: Clc1ccc(-c2nc3cc(C45CC6CC(CC(C6)C4)C5)ccc3[nH]2)cc1
ASSIGNED_CATEGORY: False

MOLECULE: CC(O)/C=C/C1OC(=O)CC1Nc1ccc(C=O)cc1 (stereo not given)
ASSIGNED_CATEGORY: False

MOLECULE: Cc1ccc(S(=O)(=O)NC(=O)C#CCOC2CCCCO2)cc1 (stereo not given)
ASSIGNED_CATEGORY: False

Ref: ChEMBL document CHEMBL1201862
